System: OVCAR-8 ovarian
Assay: NCI tumour cell line growth inhibition, 48 h
READOUT TYPE: TGI

* COc1cc(NCCCN=C(N)NC(N)=NC(C)C)c2ncccc2c1 | > 87.1 µM
* COC(=O)C(C(=O)C(=O)Nc1ccc([N+](=O)[O-])cc1[N+](=O)[O-])c1nc2ccc(Cl)cc2[nH]c1=O (stereo unspecified) | > 100 µM
* COc1cc(-c2cc(O)c(-c3ccc4ccccc4n3)c(=O)[nH]2)cc(OC)c1OC | > 54.9 µM
* CC(Nc1ccc(S(=O)(=O)N=C(N)N)cc1)c1c2ccccc2nc2ccccc12 (stereo unspecified) | 76.8 µM
* COc1cccc(NC(=O)c2sc3nc(C)c(C(O)c4ccccc4)cc3c2N)c1 (stereo unspecified) | > 66.7 µM
* S=C(Nc1ccc(-c2nc3ccccc3[nH]2)cc1)Nc1ccc(-c2nc3ccccc3[nH]2)cc1 | > 100 µM
* COC(=O)C(Cc1c[nH]c2ccccc12)NC(=O)c1ccc(-c2ccc(Cl)cc2Cl)o1 (stereo unspecified) | > 100 µM
* O=C1C(=O)N(c2cccc(C(F)(F)F)c2)C(=S)N1c1ccccc1 | > 100 µM
* Cc1ccc(S(=O)(=O)Oc2nc3ccccc3nc2OS(=O)(=O)c2ccc(C)cc2)cc1 | > 100 µM
* O=C1C=CC(=Nc2cc(Br)c(O)c(Br)c2)C=C1 | > 100 µM
* CCOC(=O)c1cc2/c(=C\c3ccc(N(C)C)cc3)c3ccccc3n2[n+]1C | 36.1 µM

====

Tested on: SK-MEL-5 melanoma
Assay: NCI tumour cell line growth inhibition, 48 h
READOUT TYPE: TGI (µM)

* CC(=O)c1c(C)[nH]c(-c2nc3ccc(N4CCN(C)CC4)cc3[nH]2)c1-c1ccc(N(C)C)cc1 | 4.59
* Oc1ccc(C(c2ccc(O)cc2)c2ccc(O)cc2)cc1 | 30.6
* O=C(Cc1ccc(F)c(F)c1)Nc1cc(C2(C(F)(F)F)CC2)nn1Cc1ccccc1 | 5.4

====

Test system: SK-OV-3 ovarian
Test: NCI tumour cell line growth inhibition, 48 h
Listing of recorded TGI by entry.
READOUT TYPE: TGI

- NCC1OC(n2cnc3c(N)ncnc32)CC1O (stereo not drawn): > 100 µM
- COc1cc(NCCCN=C(N)NC(N)=NC(C)C)c2ncccc2c1: > 100 µM
- S=C(Nc1ccc(-c2nc3ccccc3[nH]2)cc1)Nc1ccc(-c2nc3ccccc3[nH]2)cc1: > 100 µM
- Cc1cccc2c1c(=O)c1c(O)c3c(cc1n2C)OC(C)(C)C=C3: > 10 µM
- Cn1cnc([N+](=O)[O-])c1Sc1nc(N)nc2c1ncn2C1CC(O)C(CO)O1 (stereo not drawn): > 79.1 µM
- NC(=O)/N=C1/CCC2C3CCCC2C13: > 100 µM
- CN(/N=C/c1cccc2cccnc12)c1ccc(Cl)cc1[N+](=O)[O-]: > 100 µM
- O=C1CSC(c2ccccc2[N+](=O)[O-])N1c1ccc(-c2ccc(-n3c(-c4ccccc4)nc4ccccc4c3=O)cc2)cc1 (stereo not drawn): > 100 µM
- COCc1cc(C(=O)Nc2cc([C@H]3CC[C@@H](OC(=O)NC(C)C)C3)[nH]n2)n(C)n1: 96.2 µM
- CCOC(=O)C1(C(=O)OCC)OC(C)=NC1(C(=O)OC)C(=O)OC: > 100 µM
- COc1ccc(C2SCC(=O)N2NC(=O)c2ccc(NC(C)=O)cc2)c(OC)c1 (stereo not drawn): > 100 µM
- Cc1cc(Cc2cc(C)c(NC(=O)C(=O)C3CCC4=C(SC5C=CC=CC5N4)C3=O)c(C(C)C)c2)cc(C(C)C)c1NC(=O)C(=O)C1CCC2=C(SC3C=CC=CC3N2)C1=O (stereo not drawn): > 100 µM
- Cc1cc(/C=C/c2cc[n+](C)c3ccccc23)c(O)c2ncccc12: 13 µM

====

System: OVCAR-5 ovarian
Test: NCI tumour cell line growth inhibition, 48 h; in the data active = GI50 below about 0.43 µM; inactive = the rest
Classes used: 1 (yes) = active, 0 (no) = inactive

* CC(C)([NH-])CO.CC(C)([NH-])CO.[Cl][Cd][Cl] | 0 (no)
* CCC(=C/[C@H](C)C/C=C/C(C)=C/[C@@H](C)C(=O)[C@@H](C)[C@H](O)[C@@H](C)CC)/C=C/[C@@H]1OC(=O)C=C[C@H]1C | 1 (yes)
* Cc1csc(/C=C/C(=O)c2nnn(-c3ccnc4c(C(F)(F)F)cccc34)c2C)c1 | 0 (no)
* C[As](C)SCC(COC(=O)C(Cl)c1ccccc1)OC(=O)C(Cl)c1ccccc1 (centres undefined) | 0 (no)
* [N-]=[N+]=NCCCCCC(=O)OC(C(=O)c1ccccc1)c1cccc(OCC(=O)NCCOCCOCCNC(=O)CCCC[C@@H]2SC[C@@H]3NC(=O)N[C@@H]32)c1 (some centres undefined) | 0 (no)
* COc1cc(C2SCC(=O)N2c2ncc(C)s2)cc(OC)c1OC (centres undefined) | 0 (no)
* NCCCCCCCn1c2c(c3ccccc3c1=O)C(=O)c1ccccc1-2 | 0 (no)
* Oc1ccc(-c2nc3ccccc3s2)cc1CN(Cc1ccccn1)Cc1ccccn1 | 0 (no)
* CCC/C(=N\NC(=S)N1CC2CCC(CC2)C1)c1ccccn1 | 0 (no)

====

Listing of recorded TGI by entry.
Tested on: NCI/ADR-RES ovarian
Assay: NCI tumour cell line growth inhibition, 48 h
READOUT TYPE: TGI

• CN(/N=C/c1cccc2cccnc12)c1ccc(Cl)cc1[N+](=O)[O-] = > 100 µM
• COC(=O)c1ccc(N=NN(C)COc2ccc(Br)cc2)cc1 = > 100 µM
• Cc1c2c(c(O)c3c(O)cccc13)C(=O)C1(O)C(O)=C(C(=O)NCNc3ccc(C(N)=O)cn3)C(=O)C(N(C)C)C1C2 (centres undefined) = > 100 µM
• COc1cc(C2c3cc4c(cc3OC(NNS(=O)(=O)c3ccc(C)cc3)C2C)OCO4)cc(OC)c1O (centres undefined) = 45.1 µM

====

Listing of recorded GI50 by entry.
System: SN12C renal
Experiment: NCI tumour cell line growth inhibition, 48 h
READOUT TYPE: GI50

• CCC[CH2][Sn]1([CH2]CCC)[O]CC(CN(C)Cc2ccccc2)[O]1 (centres undefined) = 10.1 µM
• O=C1C=CC(=Nc2cc(Br)c(O)c(Br)c2)C=C1 = 25.6 µM
• C[As](C)SCC(COC(=O)C(Cl)c1ccccc1)OC(=O)C(Cl)c1ccccc1 (centres undefined) = 2.48 µM
• [N-]=[N+]=NCCCCCC(=O)OC(C(=O)c1ccccc1)c1cccc(OCC(=O)NCCOCCOCCNC(=O)CCCC[C@@H]2SC[C@@H]3NC(=O)N[C@@H]32)c1 (some centres undefined) = > 100 µM
• COc1cc(NCCCN=C(N)NC(N)=NC(C)C)c2ncccc2c1 = 3.51 µM
• Cc1csc(/C=C/C(=O)c2nnn(-c3ccnc4c(C(F)(F)F)cccc34)c2C)c1 = 25 µM
• NCCOCCOCCNc1nc(-c2ccccc2)nc(N2CCN(c3ccccn3)CC2)n1 = 17.1 µM
• Cn1c2c(c3ccc([N+](=O)[O-])cc3c1=O)C(=O)c1ccccc1-2 = > 100 µM
• COc1ccc2c(=O)cc(C(Cl)(Cl)Cl)oc2c1 = 0.519 µM

====

System: MOLT-4 leukemia
Assay: NCI tumour cell line growth inhibition, 48 h
Listing of recorded TGI by entry.
READOUT TYPE: TGI

• CN1C(=O)C2C3C=C4c5ccccc5N(c5ccccc5)C4(C2C1=O)[C@H]1C(=O)N(C)C(=O)[C@@H]31 (stereo partly drawn) = > 100 µM
• CC1CCCC(C(O)CC2CC(=O)NC(=O)C2)C1O (stereo not drawn) = > 100 µM
• O=c1[nH]c(=S)[nH]c2c1CN(CCCN1CCOCC1)CN2 = 83 µM

====

Listing of recorded TGI by entry.
System: SW-620 colon
Test: NCI tumour cell line growth inhibition, 48 h
READOUT TYPE: TGI

• COc1cc(NCCC2CCCCN2)c2ncccc2c1 (centres undefined) = > 100 µM
• CCOC(=O)C1=CCOc2cc(N(C)C)ccc21 = > 100 µM
• Cc1cccc(C(C)(C)C)c1NC(=O)CC1C(=O)Nc2ccccc2S1(=O)=O (centres undefined) = 22.1 µM
• O=C(Nc1ccc(Cl)c(Cl)c1)Nc1c(Oc2ccc(Cl)c(Cl)c2)ccc(Cl)c1S(=O)(=O)O = > 100 µM
• CCOC(=O)C(Cc1ccc(OC(=O)c2ccc(OC)cc2)cc1)NC(=O)C(F)(F)F (centres undefined) = > 100 µM
• CC(C)O/N=C/c1cc(NC(=S)OC(C)C)ccc1Cl = > 72.6 µM
• CC(=O)C1=C(O)C=C2Oc3c(C(=O)/C=C/c4c(Cl)cccc4Cl)c(O)c(C)c(O)c3[C@]2(C)C1=O = 3.13 µM
• O=C(Nc1ccncc1)C(=O)c1cn(S(=O)(=O)c2ccc(Cl)cc2)c2ccccc12 = > 100 µM
• CN(C)CCNC(=O)c1cccc(N(C)C(=O)c2ccccc2)c1[N+](=O)[O-] = > 100 µM
• COC1CC(COCc2ccccc2)CC(OC)O1 (centres undefined) = > 100 µM
• O=c1cc(-c2cccc3c2Sc2ccccc2S3)oc(N2CCOCC2)c1 = 26.8 µM
• CCCCCCCCCCCCCCCCCCNC(=S)/N=C\C1=C(O)c2ccccc2C1=O = 25.3 µM
• COC(=O)c1cc(C(=CCC[C@H]2CC[C@@]3(C)C(CCC4C3CC[C@@]3(C)C4CC[C@@H]3C(C)CCCC(C)C)C2)c2cc(Cl)c(O)c(C(=O)OC)c2)cc(Cl)c1O (some centres undefined) = > 10 µM
• CC1CCCC(C(O)CC2CC(=O)NC(=O)C2)C1O (centres undefined) = > 100 µM
